# tested_on: U2AF65 1,2L NLALA (human, UniProt P26368 141-342, S251N;T252L;V253A;V254L;P255A)
# Sequence (P26368 141-342 S251N/T252L/V253A/V254L/P255A, one chain of several): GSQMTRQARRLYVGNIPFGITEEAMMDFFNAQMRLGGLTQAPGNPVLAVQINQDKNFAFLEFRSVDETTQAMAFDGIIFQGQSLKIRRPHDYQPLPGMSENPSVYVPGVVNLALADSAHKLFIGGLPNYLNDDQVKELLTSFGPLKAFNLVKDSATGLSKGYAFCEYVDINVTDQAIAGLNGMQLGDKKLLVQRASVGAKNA
# test_details: fluorescence anisotropy; Anisotropy: 100 mM NaCl, 15 mM HEPES pH 6.8, 0.2 mM TCEP, 0.1 U/ul Superase-In, 30 nM RNA, 23 C; smFRET: 50 mM HEPES pH 7.4, 100 mM NaCl, room temperature
reported_metric: Kd (nM)
Could you give me the number in nM? Just the number is fine.

Exam item: Which Kd value is on record for CCCUUUUUUUUCC (ssRNA) [AdML Py tract 13mer] ?
Marked response: 45

src = paper PMC4786784
